Assay: qHTS assay for identifying genotoxic compounds that show differential cytotoxicity against isogenic chicken DT40 cell lines with known DNA damage response pathways - wild type cell line (AID 743012); note: nearly all actives have a fitted effect of over 60% in size; note: potency is the fitted concentration of half-maximal effect
Settings: DT40 wild type chicken cells viability, CellTiter-Glo, 40 h; series mostly up to 68.4 µM
Inconclusive results are not listed. Active and inactive are the calls of the source. Calls come from the whole dose curve; as a rule, active = well fitted cell-killing curve with a large enough effect in the repeat runs; inconclusive = weak or mixed curves, or effect the other way; inactive = no such curve, though single readings can be large or run the other way.
endpoint: Potency

compound	assay-result
CCCCNc1ccc(C(=O)OCCN(CC)CC)cc1	2.37 µM (active)
Nc1ccc(Oc2ccc(N)c(N)c2)cc1	15.4 µM (active)
Nc1ccc2ccccc2c1S(=O)(=O)O	inactive
Cc1ccc(C)c(N)c1	inactive

In the following, a different compound is considered.
Query string: # input compound: CCC/C=C/CO ; wanted: its Potency
Result string: inactive
